Form field: inhibition at 1 µM (one value per entry).
- system-name: human PDE4B1 (Homo sapiens, UniProt Q07343)
- Construct: host or cells: Sf9 cells
- Sequence (Q07343 whole entry): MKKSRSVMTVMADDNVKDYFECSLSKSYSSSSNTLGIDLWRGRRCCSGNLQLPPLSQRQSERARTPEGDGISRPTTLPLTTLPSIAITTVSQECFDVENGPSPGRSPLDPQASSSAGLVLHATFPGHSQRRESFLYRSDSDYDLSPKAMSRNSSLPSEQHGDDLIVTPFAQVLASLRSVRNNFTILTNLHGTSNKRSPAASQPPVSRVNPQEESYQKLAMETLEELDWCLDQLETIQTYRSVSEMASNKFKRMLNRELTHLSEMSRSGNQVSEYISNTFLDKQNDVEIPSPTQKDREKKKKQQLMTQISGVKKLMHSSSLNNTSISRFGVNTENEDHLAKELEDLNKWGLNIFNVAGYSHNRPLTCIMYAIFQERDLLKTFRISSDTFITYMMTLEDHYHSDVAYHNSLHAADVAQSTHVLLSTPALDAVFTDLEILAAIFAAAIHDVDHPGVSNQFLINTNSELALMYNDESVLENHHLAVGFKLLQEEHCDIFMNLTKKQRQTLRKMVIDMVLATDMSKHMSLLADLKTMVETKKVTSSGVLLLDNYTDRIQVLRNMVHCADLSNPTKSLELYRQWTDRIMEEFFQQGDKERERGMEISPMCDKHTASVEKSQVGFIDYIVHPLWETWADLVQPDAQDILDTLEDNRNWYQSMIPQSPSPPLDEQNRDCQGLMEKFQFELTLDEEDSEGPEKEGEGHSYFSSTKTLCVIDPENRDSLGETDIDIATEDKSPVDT
- experiment-notes: cAMP HTRF assay to determine the activity of hPDE4B1
- Assay type: biochemical
- measurement-context: Percentage inhibition of PDE4B at 1 μM test concentration
Numeric answer only, unit % assumed.

In the examples that follow, each entry is paired with its recorded inhibition at 1 µM.
molecule	inhibition at 1 µM / %
O=C(O)Cc1ccc2c(c1)CCN2c1nc(-c2ccc(Cl)s2)nc2c1CCC2 [Compound No. 1-13]	78
COc1ccc(-c2nc3c(c(N4CCc5cc(CC(=O)O)ccc54)n2)CSC3)cc1Cl [Compound No. 1-5]	98
CN(C)C(=O)COc1ccc2c(c1)N(c1nc(-c3cccc4[nH]ccc34)nc3c1C[S+]([O-])C3)CC2 (stereo not shown) [2-151]	108
COc1ccccc1-c1nc2c(c(N3CCc4ccc(OCC(=O)N(C)C)cc43)n1)C[S+]([O-])C2 (stereo not shown) [2-88]	73
O=C(COc1ccc2c(c1)N(c1nc(-c3ccc(Cl)s3)nc3c1CS(=O)(=O)C3)CC2)N1CCCC1 [Compound No. 2-126]	104

Input CCNC(=O)COc1ccc2c(c1)N(c1nc(-c3ccc(Cl)s3)nc3c1CCC3)CC2 [Compound No. 2-68] . Output inhibition at 1 µM: 2

Reported inhibition at 1 µM ( CN(C)C(=O)COc1ccc2c(c1)N(c1nc(-c3cccnc3)nc3c1C[S+]([O-])C3)CC2 (stereo not shown) [Compound No. 2-137] ) = 97

###

- system-name: human PDE4B1 (Homo sapiens)
- Construct: host or cells: Sf9 cells
- experiment-notes: cAMP HTRF assay to determine the activity of hPDE4B1
- Assay type: biochemical
- measurement-context: IC50, dose response measurements with eight concentrations; reported as ranges
pIC50: −log10 of the molar value.
test-readout: pIC50

GET /values?item= CN1CCN(C(=O)COc2ccc3c(c2)N(c2nc(-c4ccc(Cl)s4)nc4c2CS(=O)(=O)C4)CC3)CC1 [Compound No. 2-123] &system= human PDE4B1 (Homo sapiens) returns pIC50: > 7.00

###

- system-name: human PDE4B1 (Homo sapiens, UniProt Q07343)
- Construct: host or cells: Sf9 cells
- experiment-notes: cAMP HTRF assay to determine the activity of hPDE4B1
- Type: biochemical
- measurement-context: Percentage inhibition of PDE4B at 1 μM test concentration
The entries below are paired with their reported inhibition at 1 µM.
Respond with the bare value in %.

compound	inhibition at 1 µM (%)
O=C(COc1ccc2c(c1)N(c1nc(-c3ccc(Cl)s3)nc3c1CCC3)CC2)NC1COC1	5

Quick note, inhibition at 1 µM for CN(C)C(=O)COc1ccc2c(c1)N(c1nc(-c3cc(F)ccc3F)nc3c1C[S+]([O-])C3)CC2 (stereo not drawn) landed at 99

inhibition at 1 µM reading for CN1CCN(C(=O)COc2ccc3c(c2)N(c2nc(-c4ccc(Cl)s4)nc4c2CCC4)CC3)CC1 : 48

Query O=C(COc1ccc2c(c1)N(c1nc(-c3ccncc3)nc3c1C[S+]([O-])C3)CC2)N1CCC1 (stereo not drawn) yields inhibition at 1 µM of 77

Lab note: CN(C)C(=O)COc1ccc2c(c1)N(c1nc(-c3ccc(F)c(F)c3)nc3c1C[S+]([O-])C3)CC2 (stereo not drawn) gave inhibition at 1 µM of 119
